Cited source: ChEMBL document CHEMBL1201862

target: Genome polyprotein (dengue virus type 2); experiment: Dengue-2 NS5 methyltransferase inhibitors, primary screen, biochemical, confirmation dose response (AID 588689); assay type: functional
Sequence (P29990 2492-3391 limits assumed): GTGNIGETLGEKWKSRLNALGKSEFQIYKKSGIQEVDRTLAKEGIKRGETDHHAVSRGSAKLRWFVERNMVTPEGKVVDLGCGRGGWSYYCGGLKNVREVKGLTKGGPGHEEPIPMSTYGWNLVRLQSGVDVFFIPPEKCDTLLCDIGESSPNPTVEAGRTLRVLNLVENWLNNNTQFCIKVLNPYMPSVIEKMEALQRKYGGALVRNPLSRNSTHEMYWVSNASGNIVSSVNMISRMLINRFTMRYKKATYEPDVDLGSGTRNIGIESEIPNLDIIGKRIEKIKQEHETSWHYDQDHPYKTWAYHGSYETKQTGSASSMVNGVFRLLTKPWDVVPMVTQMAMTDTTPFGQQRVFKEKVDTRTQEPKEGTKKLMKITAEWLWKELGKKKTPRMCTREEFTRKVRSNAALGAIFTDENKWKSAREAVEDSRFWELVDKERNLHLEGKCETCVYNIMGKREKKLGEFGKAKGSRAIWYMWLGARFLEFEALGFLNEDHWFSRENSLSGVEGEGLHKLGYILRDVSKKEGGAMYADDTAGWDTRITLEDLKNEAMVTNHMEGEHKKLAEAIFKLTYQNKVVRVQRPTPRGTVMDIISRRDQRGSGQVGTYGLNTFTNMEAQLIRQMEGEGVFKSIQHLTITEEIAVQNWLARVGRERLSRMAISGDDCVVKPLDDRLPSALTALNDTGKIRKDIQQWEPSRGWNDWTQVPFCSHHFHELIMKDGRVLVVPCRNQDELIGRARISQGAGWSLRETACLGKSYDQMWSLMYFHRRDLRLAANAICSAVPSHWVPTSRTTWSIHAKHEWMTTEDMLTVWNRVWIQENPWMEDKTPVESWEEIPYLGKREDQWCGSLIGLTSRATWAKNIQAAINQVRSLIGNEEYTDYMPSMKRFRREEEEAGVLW
Calls of active or inactive are those of the source. No rule for the calls is given here.
Reported Metric: IC50

Example compounds with recorded IC50:
{"Compound": "O=C(O)CCCN1C(=O)/C(=C\\c2ccccc2OCc2ccccc2)SC1=S", "IC50": "36.7 µM (active)"}
{"Compound": "COCC/N=c1\\scc(-c2ccco2)n1/N=C/c1ccc(O)c(O)c1O", "IC50": "> 100 µM (active)"}
{"Compound": "Cc1ccc(-n2c3nc(=O)[nH]c(=O)c-3cc3cc([N+](=O)[O-])ccc32)cc1C", "IC50": "65.1 µM (active)"}
{"Compound": "CCCc1nnc(NC(=O)c2nc(S(=O)(=O)Cc3ccc(C)cc3)ncc2Cl)s1", "IC50": "> 100 µM (active)"}
{"Compound": "CCn1c(SC)nc(=O)c(C(c2ccc(OC)c(O)c2)c2c(O)n(CC)c(SC)nc2=O)c1O", "IC50": "50 µM (active)"}
{"Compound": "O=C(O)c1[nH]c2ccccc2c1C(c1cccc(O)c1)c1c(C(=O)O)[nH]c2ccccc12", "IC50": "23.2 µM (active)"}
{"Compound": "O=C(O)c1cccc2c1NC(C(=O)O)C1CC(Sc3ccccc3[N+](=O)[O-])C(Cl)C21 (stereo not drawn)", "IC50": "38.9 µM (active)"}

Could you now consider this next compound?
// IC50 lookup, key: O=C1NC(=O)N(c2ccccc2)C(=O)/C1=C/c1ccc([N+](=O)[O-])s1
20.4 µM (active)
